Measured TGI accompanies every entry in the list below.
Tested on: SF-268 CNS
Test: NCI tumour cell line growth inhibition, 48 h
Where a SMILES comes first, the peptide text is derived from it. Bridges are numbered along the chain shown (N, C = ends). The star is where a group is joined. Cbz = O=C(OCc1ccccc1)*

compound	TGI
C/C=C1/CC(C(=O)OC)N(C(=O)OCc2ccccc2)C1=S (centres undefined)	> 100 µM
COC(=O)C(=O)C(C#N)c1nc2ccccc2s1 (centres undefined)	> 100 µM
COC(=O)C(=O)C(C(=O)C(=O)Nc1ccc(Cl)c(Cl)c1)c1nc2ccc(C(=O)c3ccccc3)cc2[nH]c1=O (centres undefined)	> 100 µM
CNC(=O)C1CCCCNC(=O)CCC(NC(=O)OCc2ccccc2)C(=O)N1 (stereo not drawn) (Cbz-Glu-Lys-NHMe; lactam 1-2; configuration not given here)	> 100 µM
CCCN(CCC)C(=S)Sc1nc(C)nc(N2CCN(c3nc(C)nc(SC(=S)N(CCC)CCC)c3[N+](=O)[O-])CC2)c1[N+](=O)[O-]	98.5 µM
COc1cc(/C=C/C(=O)c2cccc(-n3cc(-c4ccccc4)[nH]c3=O)c2)cc(OC)c1OC	5.74 µM
O=C(CC(NC(=O)OCc1ccccc1)C(=O)NC1Cc2ccccc2C1=O)OCc1ccccc1 (centres undefined)	> 100 µM
C=CCOC(=O)Cn1cnc2c(N)ncnc21	> 100 µM
CC(C)(C)N(Cc1ccccc1)C(=O)/C=C\S(=O)c1ccccc1 (centres undefined)	6.96 µM

###

Measured TGI accompanies every entry in the list below.
Tested on: KM12 colon
Assay: NCI tumour cell line growth inhibition, 48 h
measurement.name: TGI (µM)

>>> df
                                    compound  experimental_target  output_unit  operator  measured
 0  O=C1C(Cl)C(c2cccc([N+](=O)[O-])c2)N1n1cnc2ccccc2c1=O (centres undefined)           KM12 colon           µM         >       100
 1  CCCCCCCCCCCCCCCCOCC(COP(=O)(O)OCC1OC(n2cc(CC)c(=O)[nH]c2=O)CC1O)OC(=O)CCCCCCCCCCCCCCC (centres undefined)           KM12 colon           µM         >       100
 2  COC(=O)/C=C1\SC2(OC1=Nc1ccccc1)C1CC3CC(C1)CC2C3 (centres undefined)           KM12 colon           µM         >       100
 3  CN1CCN(Cc2ccc(NC(=O)c3cncc(C#Cc4cnc(N)c5ncccc45)c3)cc2C(F)(F)F)CC1           KM12 colon           µM         =      4.03
 4  CC(C)=CCC/C(C)=C/CC/C(C)=C/CSC[C@H](NC(=O)CCCCCN1CCN(C)CC1)C(=O)NC1CCCCCC1           KM12 colon           µM         =      3.86
 5  C=C1CC[C@](C)(O)[C@@]2(C)CC[C@H]3C(=C(C)C)C(=O)C[C@]3(C)C[C@H]12           KM12 colon           µM         >        50
 6  O=C(O)c1ccc(N(/C=C/C(=O)C(F)(F)F)Cc2ccc(Cl)cc2)cc1           KM12 colon           µM         =      59.9
 7  CC(C)(C)N(Cc1ccccc1)C(=O)/C=C\S(=O)c1ccccc1 (centres undefined)           KM12 colon           µM         =      18.1
 8  Cc1ccc(S(=O)(=O)n2cc(/C=C/C#N)c(-c3cn(S(=O)(=O)c4ccc(C)cc4)cc3-c3cn(S(=O)(=O)c4ccc(C)cc4)cc3/C=C/C#N)c2)cc1           KM12 colon           µM         >       100
 9  O=C(/C=C/c1ccccc1)NC1C=Nc2ccc([N+](=O)[O-])cc2NC1=O (centres undefined)           KM12 colon           µM         =      86.7
10  O=S(=O)(NCCCNc1cc(-c2cn(-c3ccccc3)nc2-c2cccc(O)c2)ccn1)c1ccc(C(F)(F)F)cc1           KM12 colon           µM         =      4.49
11        CC(C)(CN1CCCCC1)C(=O)/C=C/c1ccccc1           KM12 colon           µM         =      28.9
12  CN(C)c1cccc(-c2cc(=S)c3cc4c(cc3[nH]2)OCO4)c1           KM12 colon           µM         >       100
13        O=C1NN2CC(c3ccccc3)=NN=C2c2ccccc21           KM12 colon           µM         >       100
14  C=C(Br)C(C)(Cl)CCC(Br)C(C)(C)Br (centres undefined)           KM12 colon           µM         >       100
15            O=C1C=C(Nc2ccccc2)c2ccccc2C1=O           KM12 colon           µM         =      9.17
16  Cn1ncnc1[C@@H]1c2n[nH]c(=O)c3cc(F)cc(c23)N[C@H]1c1ccc(F)cc1           KM12 colon           µM         >       100
17  COc1cc(/C=C2\CC3C4CC=C5CC(OC(C)=O)CC[C@]5(C)C4CC[C@]3(C)C2=O)ccc1OCCN1CCCC1 (some centres undefined)           KM12 colon           µM         =        15
18  CN(C)CCC(N)(P(=O)([O-])[O-])P(=O)([O-])[O-].N.N.[Pt+2]           KM12 colon           µM         >       100

###

System: OVCAR-8 ovarian
Assay: NCI tumour cell line growth inhibition, 48 h
measurement.name: GI50

                                    compound     measured
 0  CN1CCN(Cc2ccc(NC(=O)c3cncc(C#Cc4cnc(N)c5ncccc45)c3)cc2C(F)(F)F)CC1       580 nM
 1  COc1ccc(C2=NN(C(N)=S)C(c3ccc4c(c3)OCO4)C2)cc1 (configuration not stated)      3290 nM
 2  CC1(C)N=C(N)N=C(N)N1c1ccc(OCCCNC(=O)Nc2ccc(S(=O)(=O)F)cc2)c(Cl)c1       697 nM
 3                  Cc1cc(I)cc(CNCCN(C)C)c1O  > 100000 nM
 4         COc1ccc(-c2csc3c2-n2cccc2C3=O)cc1        68 nM
 5                           Sc1cccc2cccnc12       537 nM
 6        CCN(Cc1ccc(OC)cc1)c1ccc(CO)c(Cl)c1     14000 nM
 7         CC(=O)/C(=C\c1ccc(Cl)cc1)c1ccccc1       304 nM
 8  CN(C)CCC(N)(P(=O)([O-])[O-])P(=O)([O-])[O-].N.N.[Pt+2]  > 100000 nM
 9  CC[C@@]1(OP(=O)(O)O)C(=O)OCc2c1cc1n(c2=O)Cc2cc3ccccc3nc2-1       427 nM
10  COC(=O)N[C@H]1CCc2cc(OC)c(OC)c(OC)c2-c2ccc(SC)c(=O)cc21      < 10 nM
11     COc1cc2cc(NCc3cccc(Cl)c3)nc(C)c2cc1OC      3040 nM
12  C=CCC1(O)c2ccccc2C(=O)c2c(OCC(=O)OCC)ccc(OCC(=O)OCC)c21 (configuration not stated)  > 100000 nM
13  C[C@@H]1CN2[C@H]3[C@@H]1CC[C@]31CCC(=O)O[C@]1(C)[C@H]1CC[C@H]3CCC=C3[C@@H]12   > 30000 nM
14            O=[N+]([O-])c1ccc(C2=NCCO2)cc1  > 100000 nM
15            CC(C)(C)CC(C)(C)c1ccc(OCCO)cc1   3.31 µg/mL
16  Cn1cc(-c2ccc3nc(-c4ccc(CC(=O)Nc5cc(C(C)(C)C)no5)cc4)cnc3c2)cn1      54.8 nM
17            O=C1C=C(Nc2ccccc2)c2ccccc2C1=O      2710 nM
18  O=C1NC(=O)C(c2c[nH]c3ccccc23)=C1c1c[nH]c2ccccc12     15800 nM
19  ClC1=C(Cl)C(Cl)(C2(Cl)C(Cl)=C(Cl)C(Cl)=C2Cl)C(Cl)=C1Cl       365 nM
20  COc1ccc(-c2nc3sc(-c4cc(OC)c(OC)c(OC)c4)nn3c2/C=C2/C(=O)Nc3ccc(F)cc32)cc1      5340 nM
21  O=C(O)c1ccc(N(/C=C/C(=O)C(F)(F)F)Cc2ccc(Cl)cc2)cc1     26100 nM
